inhibition at 200 µM: recorded values
Test system: CHO/αIIbβ3 cell line
Experiment: Screening of talin antagonist candidates: binding of CHO/αIIbβ3 cells to fibrinogen-coated plate (CCK-8 readout)
Assay type: cell-based
Conditions: 0.2 mM of candidate; compared to a negative control; FIG. 2; read-out: inhibition of the binding between the CHO/αIIbβ3 cell line and fibrinogen
measured_endpoint: inhibition at 200 µM

                            chemical_string     measured_endpoint  measured_result
0  O=C(Cn1nnc(-c2ccccc2)n1)NC(=O)Nc1ccc(Oc2ccccc2)cc1  inhibition at 200 µM            ≥ 80%
1  COc1ccc(NC(=O)NC(=O)COc2ccccc2OC)c(OC)c1  inhibition at 200 µM            ≥ 80%
2  COc1cc(NC(=O)NC(=O)COc2ccc3c(c2)OCO3)ccc1Br  inhibition at 200 µM            ≥ 80%
3  COc1ccc(NC(=O)NC(=O)COc2cccc(Br)c2)c(OC)c1  inhibition at 200 µM            ≥ 80%
4  CC(C)(C)OC(=O)N1CCN(CC(=O)NC(=O)Nc2ccccc2F)CC1  inhibition at 200 µM            ≥ 80%
5  O=C(COc1ccc2c(c1)OCO2)NC(=O)Nc1ccc(OCc2ccccc2)cc1  inhibition at 200 µM            ≥ 80%
6       Cc1cccc(OCC(=O)NC(=O)Nc2ccccc2F)c1C  inhibition at 200 µM            ≥ 80%
7    COc1cc(NC(=O)NC(=O)COc2ccccc2OC)ccc1Br  inhibition at 200 µM            ≥ 80%
8  COc1cc(NC(=O)NC(=O)Cn2nnc(-c3ccccc3)n2)ccc1Br  inhibition at 200 µM            ≥ 80%
